Experiment: chemical genetic growth profiling, strain panel (AID 1159580);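 also: tested at 20 µM; growth read once vehicle control cultures reached saturation at 30 °C; 1 = growth at the plate median or of vehicle wells; lower values mean less growth of the strain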
Settings: S. cerevisiae deletion strains, growth OD, locus YBR136W, strain MEC1
The whole screen tested about 5,500 compounds, of which about 2,000 (36%) were called active. Not shown: some 18% with an inconclusive outcome. Rule as the data show it: active = normalized growth mostly below about 0.91 (no sharp cut-off); inconclusive = no clear call, values can overlap the other calls; inactive = mostly above about 0.92. Some of the results follow.
Hi! Could you answer with just one of these? active, inactive

Example entries and their recorded answers appear below.
CN1/C(=C/C=C/c2ccc3ccccc3[n+]2C)C=Cc2ccccc21
active
N#C/C(N=Cc1cc(Cl)cc(Cl)c1O)=C(\C#N)N=Cc1cc(Cl)cc(Cl)c1O
inactive
O=C1Nc2ccccc2/C1=C\c1c[nH]c2ccccc12
active
FC(F)(F)Sc1ccc(OCc2n[nH]c(=S)n2-c2ccccc2)cc1
inactive
O=C(O/N=C1/CCCc2[nH]c3ccccc3c21)C1CCCCC1
inactive

Let's switch to this compound now.
Give the logged outcome of this assay for the following compound: O=C1/C(=C/c2c[nH]c3ccccc23)CSc2ccccc21
inactive

###

Assay: chemical genetic growth profiling, strain panel (AID 1159580)
Conditions: S. cerevisiae deletion strains, growth OD, locus YER155C, strain BEM2 (second series), stronger effect = lower value
Screen size: about 5,500 compounds; about 2,000 (36%) were called active. Not shown: some 18% with an inconclusive outcome. The list shows a part of the results.
Could you mark each record 1.0 if its normalized growth falls strictly under 1, and 0.0 if it equals or exceeds it?

CC(=O)OCC(=O)[C@@]1(O)CCC2C3C[C@H](C)C4=CC(=O)C=CC4(C)C3[C@@H](O)CC21C (stereo not given in full)
0.0
O=c1c(-c2ccc(O)cc2)coc2c(C3O[C@H](CO)[C@@H](O)[C@H](O)[C@H]3O)c(O)ccc12 (stereo not given in full)
1.0
C[C@H]1O[C@@H](O[C@H]2[C@@H](O)C[C@H](O[C@H]3[C@@H](O)C[C@H](O[C@H]4CC[C@]5(C)C6CC[C@]7(C)[C@@H](C8=CC(=O)OC8)CC[C@]7(O)C6CC[C@@H]5C4)O[C@@H]3C)O[C@@H]2C)C[C@H](O)[C@@H]1O (stereo not given in full)
0.0
C=CCSSSCC=C
1.0

Just wondering, is normalized growth of O=C(O)c1ccccc1O below 1?
1.0

is_below(normalized growth, 1) for NC(=O)c1ccccc1O ?
1.0

For this compound, is normalized growth lower than 1? COC(=O)NC(=S)Nc1ccccc1NC(=S)NC(=O)OC
1.0

###

Assay: chemical genetic growth profiling, strain panel (AID 1159580)
Details: S. cerevisiae deletion strains, growth OD, locus YNR049C, strain mso1, stronger effect = lower value
The whole screen tested about 5,500 compounds, of which about 2,000 (36%) were called active. Roughly 18% stayed inconclusive and do not appear here. This is one part of the list.
Readout label: normalized growth
Reply briefly: the number, and no unit.

COC1CC(OC2CCC3(C)C(CCC4C3CCC3(C)C(C5=CC(=O)OC5)C(OC(C)=O)CC43O)C2)OC(C)C1O (stereo not drawn)
1.01
CN(C)CC[C@H](c1ccc(Cl)cc1)c1ccccn1
0.996
CC1=CC(=O)C2C(C)(C)CCC[C@]2(C)[C@@]1(O)CCc1ccoc1 (stereo partly drawn)
1
COc1cccc2c1CCC1=CC(=O)CC[C@@]12C
1.02
C[C@H]1O[C@H](O[C@H]2[C@H](O)[C@@H](O)[C@@H](O[C@H]3[C@H](O)[C@@H](O)C(O)O[C@@H]3CO)O[C@@H]2CO)[C@H](O)[C@@H](O)[C@@H]1N[C@H]1C=C(CO)[C@@H](O)[C@H](O)[C@H]1O (stereo partly drawn)
0.987
N#Cc1c(Cl)cccc1Cl
0.958
COc1cc2c(cc1OC)-c1c(oc3cc(O)cc(O)c3c1=O)CO2
1.02
CC1(C)S[C@@H]2[C@H](NC(=O)C(C(=O)O)c3ccccc3)C(=O)N2[C@H]1C(=O)O (stereo partly drawn)
0.962

Okay, next one:
Reported normalized growth, molecule Cc1c(C(N)=O)cc([N+](=O)[O-])cc1[N+](=O)[O-] : ____
1.02

###

Assay: chemical genetic growth profiling, strain panel (AID 1159580);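 also: tested at 20 µM; growth read once vehicle control cultures reached saturation at 30 °C; 1 = growth at the plate median or of vehicle wells; lower values mean less growth of the strain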
Details: S. cerevisiae deletion strains, growth OD, locus YJL187C, strain SWE1 (second series)
The whole screen tested about 5,500 compounds, of which about 2,000 (36%) were called active. Inconclusive results (about 18%) are left out. Cut-off read from the data, not from the text of the source: active = normalized growth mostly below about 0.91 (no sharp cut-off); inconclusive = no clear call, values can overlap the other calls; inactive = mostly above about 0.92. Some of the results follow.
Allowed answers: 1 (active), 0 (inactive)

CCC(=O)O[C@]1(C(=O)CCl)[C@@H](C)CC2C3CCC4=CC(=O)C=C[C@]4(C)[C@@]3(F)[C@@H](O)C[C@@]21C (stereo partly specified)
0
CC(=O)O[C@@H]1CC2C(C)(CC[C@H](O)C2(C)C)C2CC[C@]3(C)C(=CC(=O)O[C@H]3c3ccoc3)C21C (stereo partly specified)
0
CC[C@H]1CN2CCC1C[C@@H]2[C@@H](O)c1ccnc2ccc(OC)cc12 (stereo partly specified)
0
COc1cc(C(=O)N2CCOCC2)cc(OC)c1OC
0
NC(=O)c1cc([N+](=O)[O-])cc([N+](=O)[O-])c1
0
O=C(O)CN(CCN(CC(=O)O)CC(=O)O)CC(=O)O
1
CC1(C)S[C@@H]2[C@H](NC(=O)[C@@H](N)c3ccc(O)cc3)C(=O)N2[C@H]1C(=O)O
0
CCC(=O)OCC(=O)C1(OC(=O)CC)C(C)CC2C3CCC4=CC(=O)C=CC4(C)C3(Cl)C(O)CC21C (stereo unspecified)
0

Query: recorded result category for Cc1cc(N)c2ccccc2[n+]1CCCCCCCCCC[n+]1c(C)cc(N)c2ccccc21 in this test
1

Test call, this compound: CC1CCCC(C)N1NC(=O)c1ccc(Cl)c(S(N)(=O)=O)c1 (stereo unspecified)
0

Answer briefly: the call reported for CNC[C@H](O)c1cccc(O)c1 in this assay.
0

What outcome does the record of this test show for Nc1ccc(S(=O)(=O)Nc2ncccn2)cc1 ?
0

Recorded call for C[N+]1(C)C[C@H](O)[C@H](C(=O)[O-])C1 ?
0

I would be grateful if you could indicate the recorded call for CSCCC(N)C(=O)NC(CC(C)C)C(=O)NC(Cc1ccccc1)C(=O)O (stereo unspecified) .
0

Hey, what did the test say about CC(=O)O[C@@H]1c2c(ccc3ccc(=O)oc23)OC(C)(C)[C@@H]1OC(=O)CC(C)C ?
0

Just curious, what result did CCOC(=O)C1=C(O)C(=O)N(Cc2ccccc2)C1 get here?
0

Outcome logged for COc1ccc(-c2cc(=O)c3c(O)cc(O)c(-c4cc(-c5cc(=O)c6c(O)cc(O)cc6o5)ccc4OC)c3o2)cc1 in this assay:
0

###

Experiment: chemical genetic growth profiling, strain panel (AID 1159580);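 also: tested at 20 µM; growth read once vehicle control cultures reached saturation at 30 °C; 1 = growth at the plate median or of vehicle wells; lower values mean less growth of the strain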
Details: S. cerevisiae deletion strains, growth OD, locus YLR039C, strain RIC1, stronger effect = lower value
The whole screen tested about 5,500 compounds, of which about 2,000 (36%) were called active. Not shown: some 18% with an inconclusive outcome. The list shows a part of the results.
List of normalized growth values.
Number, no unit, nothing else.

Study these solved cases before continuing.
Cc1ccc(C(C)C)c(O)c1C(=O)O
0.943
CC1(C)S[C@@H]2[C@H](NC(=O)[C@@H](N)c3ccc(O)cc3)C(=O)N2[C@H]1C(=O)O
1
Cc1ccc(Sc2ncccc2C(=O)NCC(=O)O)cc1
1

For the compound shown here, Nc1ccc(S(=O)(=O)Nc2ncccn2)cc1 , give the reported normalized growth.
0.999

Report normalized growth for CCSc1ncccc1C(=O)N[C@@H](CCSC)C(=O)OC please.
1

Please report the recorded normalized growth for NNC(=O)c1cccnc1Oc1ccccc1 .
1.12

Suppose we examine the compound NC[C@@H]1O[C@H](O[C@@H]2[C@@H](CO)OC(O[C@@H]3[C@@H](O)[C@H](N)C[C@H](N)[C@H]3O[C@H]3O[C@H](CO)[C@@H](O)[C@H](O)[C@H]3N)[C@@H]2O)[C@H](N)[C@@H](O)[C@@H]1O (some centres undefined) ; what normalized growth value has been reported?
0.983

Query: normalized growth; subject: CCc1ccc2c(O)c3c(cc2c1C(=O)OC)C(=O)c1c(O)ccc(O)c1C3=O
0.961

Param item = NC(=NS(=O)(=O)c1cc(Cl)c(Oc2ccc([N+](=O)[O-])cc2Cl)c(Cl)c1)c1cccnc1 ; retrieve measured normalized growth.
1.09

###

Assay: chemical genetic growth profiling, strain panel (AID 1159580);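 also: tested at 20 µM; growth read once vehicle control cultures reached saturation at 30 °C; 1 = growth at the plate median or of vehicle wells; lower values mean less growth of the strain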
Conditions: S. cerevisiae deletion strains, growth OD, locus YLL026W, stronger effect = lower value
Hit rate of the full screen: of about 5,500 compounds, about 2,000 (36%) were called active. Roughly 18% stayed inconclusive and do not appear here. The list shows a part of the results.
The following molecules are listed with their measured normalized growth values.
Lab note: write the figure by itself, no unit.

CC[C@@]1(O)C(=O)OCc2c1cc1n(c2=O)Cc2cc3ccccc3nc2-1
0.727
COc1cc(O)c2c(=O)cc(-c3ccc(OC)c(-c4c(O)cc(O)c5c(=O)cc(-c6ccc(O)cc6)oc45)c3)oc2c1
1.01
COc1ccc(-c2cc(=O)c3c(O)cc(O)c(-c4cc(-c5cc(=O)c6c(O)cc(O)cc6o5)ccc4OC)c3o2)cc1
1.02
C[C@H]1[C@H](C)CC[C@]2(C(=O)O)CC[C@]3(C)C(=CCC4[C@@]5(C)C[C@@H](O)[C@H](O)[C@@](C)(CO)C5[C@H](O)C[C@]43C)[C@H]12 (some centres undefined)
0.97
COc1cc2c(cc1OC)-c1c(oc3cc(O)cc(O)c3c1=O)CO2
1.01
Cc1ccc(-c2nc3ccc(C)cn3c2CC(=O)N(C)C)cc1
0.999

Given the molecule N#Cc1c(Cl)cccc1Cl , what is its reported normalized growth?
0.975

GET /values?readout=normalized growth&item= Cc1c(OCC(F)(F)F)ccnc1CS(=O)c1nc2ccccc2[nH]1 (centres undefined)
1.02

Tell me the measured normalized growth of Cc1ncc(CO)c(CO)c1O , please.
1.02
